system: A549; experiment: Cytotoxicity against human A549 cells measured after 48 hrs by MTT assay; format: functional, cell-based; conditions: A549, 48 h
Rule: EC50 below 30 µM gives YES. Equal to or above 30 µM gives NO.

Reference set (3 entries):
INSERT INTO measurements (molecule, label) VALUES
  ('CC(=O)Nc1ccc(NC(=O)CN2C(=O)/C(=N\NC(=O)Cn3ccc(=O)c(O)c3C)c3ccccc32)cc1', 'NO'),
  ('Cc1c(O)c(=O)ccn1CC(=O)N/N=C1\C(=O)N(CC(=O)Nc2ccc(Cl)cc2)c2ccccc21', 'YES'),
  ('Cc1cccc(NC(=O)CN2C(=O)/C(=N\NC(=O)Cn3ccc(=O)c(O)c3C)c3ccccc32)c1C', 'NO');

Ask: Field: below-cutoff. Rule: recorded EC50 strictly less than 30 µM. Subject: Cc1c(O)c(=O)ccn1CC(=O)N/N=C1\C(=O)N(CC(=O)Nc2cccc(Cl)c2)c2ccccc21
Reply: YES

Ask: Input Cc1c(O)c(=O)ccn1CC(=O)N/N=C1\C(=O)N(CC(=O)Nc2cc(Cl)cc(Cl)c2)c2ccccc21 ; condition: EC50 strictly below 30 µM. Does it hold?
Reply: YES

Ask: Record Cc1c(O)c(=O)ccn1CC(=O)N/N=C1\C(=O)N(CC(=O)Nc2ccc(Cl)cc2Cl)c2ccccc21 : is its EC50 strictly below 30 µM?
Reply: NO

Ask: Input Cc1c(O)c(=O)ccn1CC(=O)N/N=C1\C(=O)N(CC(=O)Nc2ccccc2Cl)c2ccccc21 ; condition: EC50 strictly below 30 µM. Does it hold?
Reply: NO

Ask: Regarding COc1ccc(NC(=O)CN2C(=O)/C(=N\NC(=O)Cn3ccc(=O)c(O)c3C)c3ccccc32)cc1 , kindly confirm whether its EC50 is beneath 30 µM.
Reply: NO

Ask: Does this molecule meet the criterion EC50 < 30 µM? Cc1ccc(NC(=O)CN2C(=O)/C(=N\NC(=O)Cn3ccc(=O)c(O)c3C)c3ccccc32)cc1
Reply: NO

Ask: Could you please tell me whether EC50 recorded for C#Cc1cccc(Nc2ncnc3cc(OCCOC)c(OCCOC)cc23)c1 [ERLOTINIB] is less than 30 µM?
Reply: YES

----------
test system: MOLM-13; experiment: Cytotoxicity against human MOLM-13 cells measured after 48 hrs by MTT assay; type: functional, cell-based; settings: MOLM-13, 48 h
PROPERTY: EC50 (nM)
Enter your answer as a number in nM; do not include the unit.

Field: example entries. Status: answers known.
INSERT INTO results (smiles_str, measured_target, property, val) VALUES
  ('Cc1c(O)c(=O)ccn1CC(=O)N/N=C1\C(=O)N(CC(=O)Nc2ccc(Cl)cc2Cl)c2ccccc21', 'MOLM-13', 'EC50', 1620),
  ('Cc1c(O)c(=O)ccn1CC(=O)N/N=C1\C(=O)N(CC(=O)Nc2ccc(Br)cc2)c2ccccc21', 'MOLM-13', 'EC50', 1170);

Ask: Fill in EC50 for Cc1c(O)c(=O)ccn1CC(=O)N/N=C1\C(=O)N(CC(=O)Nc2cc(Cl)cc(Cl)c2)c2ccccc21 tested with MOLM-13.
Reply: 690

Ask: Lab note: record EC50 of N#Cc1cc2cc(CN3CCC(Nc4ncnc5sc(CC(F)(F)F)cc45)CC3)c(O)cc2n1Cc1cn[nH]c1 tested on MOLM-13.
Reply: 140

Hello, the source for this data is ChEMBL document CHEMBL5126563, in case you need it.
